experiment: Pharmacokinetics, single oral dosing, SAD study BP25129; format: in vivo, Human; conditions: human, plasma; 330 mg oral, tablet, n = 6 male
Property Measured: bioavailability

Req: Quick one: bioavailability of Cc1onc(-c2ccc(F)cc2)c1COc1ccc(C(=O)N2CCS(=O)(=O)CC2)cn1 [basmisanil] ?
Resp: ~75%

----------
test: Pharmacokinetics, single oral dosing; format: in vivo, Cynomolgus macaque; settings: cynomolgus monkey, plasma; 10 mg/kg oral, microsuspension, n = 3 male
Property Measured: bioavailability (%)
# output: bare number, implied unit %

Req: Quick one: bioavailability of Cc1onc(-c2ccc(F)cc2)c1COc1ccc(C(=O)N2CCS(=O)(=O)CC2)cn1 [basmisanil] ?
Resp: 48

----------
assay: Pharmacokinetics, single intravenous dosing; format: in vivo; conditions: Wistar, rat, plasma, 4.3 mg/kg i.v., 2 male, read-out: Total CL
Property Measured: clearance (mL/min/kg)
# output: bare number, implied unit mL/min/kg

Req: Quick one: clearance of Cc1onc(-c2ccc(F)cc2)c1COc1ccc(C(=O)N2CCS(=O)(=O)CC2)cn1 ?
Resp: 54

----------
Target: GABAA-α5 receptors (Rattus norvegicus, UniProt P18508+P19969)
Construct: from tissue; host or cells: rat brain (hippocampus), in vivo with ex vivo autoradiography
Sequence (P19969 32-464 limits assumed): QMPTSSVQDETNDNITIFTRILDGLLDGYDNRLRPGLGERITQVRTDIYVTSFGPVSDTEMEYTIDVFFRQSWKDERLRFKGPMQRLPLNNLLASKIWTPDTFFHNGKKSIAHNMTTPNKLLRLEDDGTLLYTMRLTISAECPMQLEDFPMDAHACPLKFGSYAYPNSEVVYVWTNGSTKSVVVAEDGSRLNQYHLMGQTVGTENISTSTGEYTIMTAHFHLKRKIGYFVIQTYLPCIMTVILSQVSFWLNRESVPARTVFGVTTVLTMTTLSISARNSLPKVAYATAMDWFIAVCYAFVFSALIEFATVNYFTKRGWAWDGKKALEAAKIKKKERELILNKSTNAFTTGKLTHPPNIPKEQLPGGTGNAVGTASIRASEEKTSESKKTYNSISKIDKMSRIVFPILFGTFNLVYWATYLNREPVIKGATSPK
Sequence (P18508 39-466): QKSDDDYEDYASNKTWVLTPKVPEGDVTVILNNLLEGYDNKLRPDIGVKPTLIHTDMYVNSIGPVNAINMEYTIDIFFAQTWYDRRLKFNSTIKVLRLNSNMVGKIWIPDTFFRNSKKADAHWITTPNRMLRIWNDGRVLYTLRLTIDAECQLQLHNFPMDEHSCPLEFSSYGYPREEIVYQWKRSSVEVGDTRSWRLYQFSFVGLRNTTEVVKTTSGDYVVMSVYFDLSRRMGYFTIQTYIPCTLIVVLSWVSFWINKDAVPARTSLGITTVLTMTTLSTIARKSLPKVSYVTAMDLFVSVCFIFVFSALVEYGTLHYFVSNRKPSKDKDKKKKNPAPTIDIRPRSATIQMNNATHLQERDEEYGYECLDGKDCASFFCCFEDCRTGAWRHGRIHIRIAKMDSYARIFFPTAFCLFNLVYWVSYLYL
Sequence (P63079 26-473 partner): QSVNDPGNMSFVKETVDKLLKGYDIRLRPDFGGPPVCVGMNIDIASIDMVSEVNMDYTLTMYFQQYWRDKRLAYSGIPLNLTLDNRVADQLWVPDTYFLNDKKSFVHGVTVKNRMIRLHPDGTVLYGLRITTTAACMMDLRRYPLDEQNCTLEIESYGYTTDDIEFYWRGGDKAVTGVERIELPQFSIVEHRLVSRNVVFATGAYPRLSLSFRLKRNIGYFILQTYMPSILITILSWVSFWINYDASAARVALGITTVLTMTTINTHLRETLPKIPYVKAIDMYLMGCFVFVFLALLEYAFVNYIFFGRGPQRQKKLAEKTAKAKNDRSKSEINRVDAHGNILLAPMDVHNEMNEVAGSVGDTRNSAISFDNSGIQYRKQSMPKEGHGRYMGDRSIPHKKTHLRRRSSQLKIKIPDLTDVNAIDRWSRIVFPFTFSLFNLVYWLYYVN
Assay: In vivo [3H]-Ro 15-4513 binding with ex vivo autoradiography (receptor occupancy)
Conditions: free plasma, hippocampus, Hill fit; read-out: free plasma concentration for half-maximal receptor occupancy (EC50)
Description: Brains and blood were collected from each animal. Brains were divided in two halves along their sagittal axis and frozen in dry ice. […] Half of the brain was used for autoradiography, as described earlier. […] The percentage of receptor occupancy (y) was calculated from: y=1001-Sbasmisanil/Svehicle. The curve was fitted to the experimental results using the Hill equation (Eq. (1) with Hill coefficient D = 1).
Property Measured: pEC50
Worth noting: pEC50 values are minus log10 of concentrations stated in mol/L.

Req: Quick one: pEC50 of Cc1onc(-c2ccc(F)cc2)c1COc1ccc(C(=O)N2CCS(=O)(=O)CC2)cn1 [basmisanil] ?
Resp: 6.77

----------
Assay: Plasma levels, object retrieval task
Format: in vivo, Macaca fascicularis
Conditions: cynomolgus monkey, oral, 30 mg/kg p.o., 180 min, read-out: total plasma concentration
Method: Twelve cynomolgus macaques were presented with a clear acrylic box with one open side baited with a food treat, as described previously[14],[38]. The test is easy when the open side of the box is directed towards the subject and difficult when the open sides face other directions. […] Compound doses were administered in a pseudorandom order. […] Data were analysed using a one-way repeated measures ANOVA followed, in significant cases, by a post hoc Dunnett’s test. […]
Property Measured: concentration at 180 min (ng/mL)
# output: bare number, implied unit ng/mL

Req: Quick one: concentration at 180 min of Cc1onc(-c2ccc(F)cc2)c1COc1ccc(C(=O)N2CCS(=O)(=O)CC2)cn1 ?
Resp: 2850

----------
test: Pharmacokinetics, single intravenous dosing; type: in vivo; conditions: Beagle, dog, plasma, 1.0 mg/kg i.v., n=3, read-out: Vss
Property Measured: Vd (L/kg)
# output: bare number, implied unit L/kg

Req: Quick one: Vd of Cc1onc(-c2ccc(F)cc2)c1COc1ccc(C(=O)N2CCS(=O)(=O)CC2)cn1 ?
Resp: 1.7

----------
experiment: Pharmacokinetics, single oral dosing; type: in vivo; details: Wistar, rat, plasma; 9 mg/kg oral, microsuspension, n = 2 male
Property Measured: AUC(0-t) (ng·h/mL)
# output: bare number, implied unit ng·h/mL

Req: Quick one: AUC(0-t) of Cc1onc(-c2ccc(F)cc2)c1COc1ccc(C(=O)N2CCS(=O)(=O)CC2)cn1 ?
Resp: 1100

Numbers sourced from paper PMC8032764.
